# Tested on: Plasmodium berghei
# method-summary: Luciferase/luciferin-expressing antifolate-resistant parasites were used to infect a culture of HepG2 cells that were pre-incubated with compounds. Infected hepatocytes emit light due to the luciferase reaction. Assay results are presented as the percent inhibition of light emission compared to control. […]
# Assay type: functional
# condition-notes: sporozoite, HEPG2TOX_HILL_SLOPE 9.85, HEPG2TOX_R_SQUARED 0.824, PBLUC_HILL_SLOPE 13.5, PBLUC_R_SQUARED 0.79, read-out: LUCIFERASE INFECTION ASSAY - IC50
readout-type: IC50 (µM)
Report as a plain number; the unit µM is understood.

// lookup IC50 | system=Plasmodium berghei | key= O=C(c1c[nH]c2ccccc12)N1CCN(c2nsc3ccccc23)CC1
3.25

----------
# System: Plasmodium berghei
# method-summary: Luciferase/luciferin-expressing antifolate-resistant parasites were used to infect a culture of HepG2 cells that were pre-incubated with compounds. Infected hepatocytes emit light due to the luciferase reaction. Assay results are presented as the percent inhibition of light emission compared to control. […]
# Type: functional
# condition-notes: sporozoite, FFLUC_HILL_SLOPE 3.04, FFLUC_R_SQUARED 0.417, HEPG2TOX_HILL_SLOPE 2.16, HEPG2TOX_R_SQUARED 0.191, read-out: LUCIFERASE INFECTION ASSAY - IC50
readout-type: IC50

// lookup IC50 | system=Plasmodium berghei | key= Cc1cc(C)c(C(=O)CSc2cc(C)c3cccc(C)c3n2)c(C)c1
> 10 µM

----------
# Tested on: Plasmodium berghei
# method-summary: Luciferase/luciferin-expressing antifolate-resistant parasites were used to infect a culture of HepG2 cells that were pre-incubated with compounds. Infected hepatocytes emit light due to the luciferase reaction. Assay results are presented as the percent inhibition of light emission compared to control. […]
# Format: functional
# condition-notes: sporozoite, FFLUC_HILL_SLOPE 11.2, FFLUC_R_SQUARED 0.284, read-out: LUCIFERASE INFECTION ASSAY - IC50
pIC50: −log10 of the molar value.
readout-type: pIC50

Returns the measured pIC50 for the input compound. Input: O=C(NC(c1ccccc1)c1ccccc1)[C@@H]1C[C@@H](OCc2ccccc2)CN1CC1CCCCC1
< 5.16

----------
# Test system: Plasmodium berghei
# method-summary: Luciferase/luciferin-expressing antifolate-resistant parasites were used to infect a culture of HepG2 cells that were pre-incubated with compounds. Infected hepatocytes emit light due to the luciferase reaction. Assay results are presented as the percent inhibition of light emission compared to control. […]
# Format: functional
# condition-notes: sporozoite, HEPG2TOX_HILL_SLOPE 12.5, HEPG2TOX_R_SQUARED 0.865, PBLUC_HILL_SLOPE 12.4, PBLUC_R_SQUARED 0.642, read-out: LUCIFERASE INFECTION ASSAY - IC50
readout-type: pIC50
FYI, pIC50 means -log10 of a concentration in mol per litre.

Returns the measured pIC50 for the input molecule. Input: CCN1CCc2nc(NC(=O)C3(c4ccc(Br)cc4)CC3)sc2C1
5.52

----------
# Tested on: Plasmodium berghei
# method-summary: Luciferase/luciferin-expressing antifolate-resistant parasites were used to infect a culture of HepG2 cells that were pre-incubated with compounds. Infected hepatocytes emit light due to the luciferase reaction. Assay results are presented as the percent inhibition of light emission compared to control. […]
# Type: functional
# condition-notes: sporozoite, HEPG2TOX_HILL_SLOPE 6.22, HEPG2TOX_R_SQUARED 0.365, PBLUC_HILL_SLOPE 4.01, PBLUC_R_SQUARED 0.105, read-out: LUCIFERASE INFECTION ASSAY - IC50
readout-type: IC50
Please format your answer as a value with the unit trailing.

Returns the measured IC50 for the input compound. Input: Cc1cc2ccccn2c1C(=O)c1ccccc1Br
9.81 µM

----------
# Tested on: Plasmodium berghei
# method-summary: Luciferase/luciferin-expressing antifolate-resistant parasites were used to infect a culture of HepG2 cells that were pre-incubated with compounds. Infected hepatocytes emit light due to the luciferase reaction. Assay results are presented as the percent inhibition of light emission compared to control. […]
# Type: functional
# condition-notes: sporozoite, PBLUC_HILL_SLOPE 15.1, PBLUC_R_SQUARED 0.587, read-out: LUCIFERASE INFECTION ASSAY - IC50
readout-type: IC50 (nM)
Report as a plain number; the unit nM is understood.

Returns the measured IC50 for the input molecule. Input: O=C(CSc1nnc(C2CC2)o1)NCCC1=CCCCC1
2880

----------
# Tested on: Plasmodium berghei
# method-summary: Luciferase/luciferin-expressing antifolate-resistant parasites were used to infect a culture of HepG2 cells that were pre-incubated with compounds. Infected hepatocytes emit light due to the luciferase reaction. Assay results are presented as the percent inhibition of light emission compared to control. […]
# Format: functional
# condition-notes: sporozoite, FFLUC_HILL_SLOPE 16.3, FFLUC_R_SQUARED 0.334, HEPG2TOX_HILL_SLOPE 1.94, HEPG2TOX_R_SQUARED 0.976, PBLUC_HILL_SLOPE 7.87, PBLUC_R_SQUARED 0.839, read-out: LUCIFERASE INFECTION ASSAY - IC50
readout-type: IC50 (nM)
Report as a plain number; the unit nM is understood.

Returns the measured IC50 for the input molecule. Input: O=C(N/N=C/c1ccccc1C(F)(F)F)c1[nH]c2ccccc2c1-c1ccccc1
813

----------
# System: Plasmodium berghei
# method-summary: Luciferase/luciferin-expressing antifolate-resistant parasites were used to infect a culture of HepG2 cells that were pre-incubated with compounds. Infected hepatocytes emit light due to the luciferase reaction. Assay results are presented as the percent inhibition of light emission compared to control. […]
# Assay type: functional
# condition-notes: sporozoite, PBLUC_HILL_SLOPE 13.8, PBLUC_R_SQUARED 0.489, read-out: LUCIFERASE INFECTION ASSAY - IC50
readout-type: IC50
Please format your answer as a value with the unit trailing.

Returns the measured IC50 for the input compound. Input: Cc1cc(C)cc(C(O)c2nc(-c3cccc4ccccc34)c[nH]2)c1 (stereo unspecified)
9.47 µM

----------
# Test system: Plasmodium berghei
# method-summary: Luciferase/luciferin-expressing antifolate-resistant parasites were used to infect a culture of HepG2 cells that were pre-incubated with compounds. Infected hepatocytes emit light due to the luciferase reaction. Assay results are presented as the percent inhibition of light emission compared to control. […]
# Format: functional
# condition-notes: sporozoite, HEPG2TOX_HILL_SLOPE 2.45, HEPG2TOX_R_SQUARED 0.972, PBLUC_HILL_SLOPE 2.42, PBLUC_R_SQUARED 0.716, read-out: LUCIFERASE INFECTION ASSAY - IC50
readout-type: pIC50
FYI, pIC50 means -log10 of a concentration in mol per litre.

Returns the measured pIC50 for the input compound. Input: Cc1onc(-c2ccccc2)c1-c1ccnc(-c2ccc(Cl)cc2)n1
5.74

----------
# Tested on: Plasmodium berghei
# method-summary: Luciferase/luciferin-expressing antifolate-resistant parasites were used to infect a culture of HepG2 cells that were pre-incubated with compounds. Infected hepatocytes emit light due to the luciferase reaction. Assay results are presented as the percent inhibition of light emission compared to control. […]
# Format: functional
# condition-notes: sporozoite, HEPG2TOX_HILL_SLOPE 3.47, HEPG2TOX_R_SQUARED 0.947, PBLUC_HILL_SLOPE 2.46, PBLUC_R_SQUARED 0.836, read-out: LUCIFERASE INFECTION ASSAY - IC50
readout-type: IC50 (µM)
Report as a plain number; the unit µM is understood.

Returns the measured IC50 for the input compound. Input: CCN(CC)c1ccc(NC(=O)CCc2ccccc2)cc1C
2.79

----------
# System: Plasmodium berghei
# method-summary: Luciferase/luciferin-expressing antifolate-resistant parasites were used to infect a culture of HepG2 cells that were pre-incubated with compounds. Infected hepatocytes emit light due to the luciferase reaction. Assay results are presented as the percent inhibition of light emission compared to control. […]
# Assay type: functional
# condition-notes: sporozoite, read-out: LUCIFERASE INFECTION ASSAY - IC90
# if measured IC90 < 2 µM: YES  # else: NO

Problem: For the compound CCn1c2ccccc2c2cc(NC(=O)C(C)OC(=O)c3ccc([N+](=O)[O-])o3)ccc21 (stereo not given) , is IC90 under 2 µM?
NO

Problem: For the compound COc1ccc(-n2c(=O)c3ccccc3n3c(SCC(N)=O)nnc23)cc1 , is IC90 under 2 µM?
NO

Problem: For the compound COc1ccc(C2CC(=O)Nc3ccc4ccccc4c32)c(OC)c1OC (stereo not given) , is IC90 under 2 µM?
NO

Problem: For the compound CCc1cc(-c2n[nH]cc2-c2ccc3c(c2)OCCO3)c(O)cc1OC , is IC90 under 2 µM?
YES

Problem: For the compound CC(Sc1nccn1-c1cccc(F)c1)C(=O)Nc1ccc(N2CCOCC2)cc1 (stereo not given) , is IC90 under 2 µM?
NO

Problem: For the compound CCCCCNC(=O)COC(=O)c1ccccc1-n1ncc(Cl)c(Cl)c1=O , is IC90 under 2 µM?
NO

Problem: For the compound O=C(COc1ccc(Oc2ccccc2)cc1)NCc1cn2ccccc2n1 , is IC90 under 2 µM?
YES

Problem: For the compound Oc1cccc(-c2cnc3cnc(-c4ccc(CNc5ccccc5)cc4)cn23)c1 , is IC90 under 2 µM?
NO

Problem: For the compound Fc1cccc(Cl)c1CSc1nnc(-c2cc(C(F)(F)F)cc(C(F)(F)F)c2)[nH]1 , is IC90 under 2 µM?
NO

Problem: For the compound O=C1CCc2cc(-c3csc(NC(=O)c4ccc(-n5cnc6ccccc65)cc4)n3)ccc2N1 , is IC90 under 2 µM?
NO
